# tgt: T1, human GIP receptor (human, UniProt P48546 22-466)
# T1 sequence (looked up): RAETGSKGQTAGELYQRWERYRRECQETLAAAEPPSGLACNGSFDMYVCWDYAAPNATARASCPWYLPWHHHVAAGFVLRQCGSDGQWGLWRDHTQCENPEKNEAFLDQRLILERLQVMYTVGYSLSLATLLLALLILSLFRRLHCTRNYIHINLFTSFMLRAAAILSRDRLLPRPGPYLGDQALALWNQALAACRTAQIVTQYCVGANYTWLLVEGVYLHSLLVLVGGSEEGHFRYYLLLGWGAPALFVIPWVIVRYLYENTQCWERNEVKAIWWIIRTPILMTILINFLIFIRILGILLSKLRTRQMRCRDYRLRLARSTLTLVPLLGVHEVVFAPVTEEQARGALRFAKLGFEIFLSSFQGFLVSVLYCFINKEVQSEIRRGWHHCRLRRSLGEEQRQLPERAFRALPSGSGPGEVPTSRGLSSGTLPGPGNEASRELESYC
# procedure_details: cell-based or functional assay
Where no end group is shown, it is not given here. [ ]: non-standard residue; d: D form. The star is where a group is joined. Acetyl(2-(4-imidazolyl)) = O=C(Cc1c[nH]cn1)*; Aib = CC(C)(N)C(=O)O
value_kind: In vitro activity relative to native peptide (%) vs. GIP

Solved entries (count: 2):
H[Aib]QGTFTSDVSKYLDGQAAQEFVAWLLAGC [triple agonist of SEQ ID NO: 9]; < 0.1%
[Acetyl(2-(4-imidazolyl))][Aib]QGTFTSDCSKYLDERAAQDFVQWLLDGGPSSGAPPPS [triple agonist of SEQ ID NO: 63]; < 0.1%

// below: In vitro activity relative to native peptide (%) vs. GIP requested for another binder
-- ask GET /values?readout=In vitro activity relative to native peptide (%) vs. GIP&item= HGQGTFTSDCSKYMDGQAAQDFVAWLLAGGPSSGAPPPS [triple agonist of SEQ ID NO: 45]
-- reply < 0.1%
